SYSTEM: GluA2/3 AMPA receptor subunits (flip isoform) (Homo sapiens, UniProt P42262+P42263)
Construct: expressed in transfected cells; host or cells: HEK293
Sequence (P42262 25-883 isoform P42262-2 limits assumed): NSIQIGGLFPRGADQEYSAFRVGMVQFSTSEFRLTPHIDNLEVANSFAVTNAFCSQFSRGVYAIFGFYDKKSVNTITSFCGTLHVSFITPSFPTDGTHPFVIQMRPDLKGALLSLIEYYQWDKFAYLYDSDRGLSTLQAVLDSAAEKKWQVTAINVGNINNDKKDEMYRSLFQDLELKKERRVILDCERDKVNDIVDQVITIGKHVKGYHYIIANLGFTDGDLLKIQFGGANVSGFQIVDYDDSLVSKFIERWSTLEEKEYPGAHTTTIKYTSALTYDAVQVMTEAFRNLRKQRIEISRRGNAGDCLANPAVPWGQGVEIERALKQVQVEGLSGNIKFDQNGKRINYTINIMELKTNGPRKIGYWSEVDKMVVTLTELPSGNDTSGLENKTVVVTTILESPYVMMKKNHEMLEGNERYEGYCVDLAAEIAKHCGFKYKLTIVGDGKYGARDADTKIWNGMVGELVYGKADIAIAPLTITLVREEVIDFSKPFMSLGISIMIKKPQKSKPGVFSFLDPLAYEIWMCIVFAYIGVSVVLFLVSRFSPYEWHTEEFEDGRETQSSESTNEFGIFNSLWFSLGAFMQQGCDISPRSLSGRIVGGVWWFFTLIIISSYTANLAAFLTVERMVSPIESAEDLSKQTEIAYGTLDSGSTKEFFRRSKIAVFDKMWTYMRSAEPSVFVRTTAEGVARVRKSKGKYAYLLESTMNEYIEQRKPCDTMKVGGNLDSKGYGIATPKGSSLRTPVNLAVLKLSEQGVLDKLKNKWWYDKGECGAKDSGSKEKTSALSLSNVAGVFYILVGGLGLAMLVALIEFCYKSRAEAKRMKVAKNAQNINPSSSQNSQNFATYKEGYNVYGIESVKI
Sequence (P42263 29-894 isoform P42263-2 limits assumed): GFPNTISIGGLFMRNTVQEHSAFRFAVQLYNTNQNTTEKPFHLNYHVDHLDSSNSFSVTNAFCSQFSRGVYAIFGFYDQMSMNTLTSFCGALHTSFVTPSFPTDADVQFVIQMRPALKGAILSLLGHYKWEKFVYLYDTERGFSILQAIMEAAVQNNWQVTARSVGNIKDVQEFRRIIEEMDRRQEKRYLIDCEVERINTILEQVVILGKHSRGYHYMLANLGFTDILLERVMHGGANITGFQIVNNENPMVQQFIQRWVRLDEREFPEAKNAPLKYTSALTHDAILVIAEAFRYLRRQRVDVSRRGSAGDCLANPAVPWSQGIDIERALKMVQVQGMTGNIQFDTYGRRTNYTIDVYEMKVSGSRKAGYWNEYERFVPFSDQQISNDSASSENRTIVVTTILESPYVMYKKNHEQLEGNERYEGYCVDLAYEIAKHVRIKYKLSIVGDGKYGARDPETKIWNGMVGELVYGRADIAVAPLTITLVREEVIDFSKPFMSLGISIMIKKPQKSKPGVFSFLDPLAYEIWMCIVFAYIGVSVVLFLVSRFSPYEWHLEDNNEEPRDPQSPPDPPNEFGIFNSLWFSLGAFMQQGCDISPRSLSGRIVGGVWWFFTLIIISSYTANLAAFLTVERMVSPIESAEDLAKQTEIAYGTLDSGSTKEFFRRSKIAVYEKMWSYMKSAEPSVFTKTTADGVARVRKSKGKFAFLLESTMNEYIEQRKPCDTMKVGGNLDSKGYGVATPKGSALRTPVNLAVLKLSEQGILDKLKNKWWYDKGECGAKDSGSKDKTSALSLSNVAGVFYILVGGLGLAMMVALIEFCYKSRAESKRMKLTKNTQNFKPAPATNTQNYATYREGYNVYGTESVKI
METHOD_SUMMARY: Whole-cell patch-clamp electrophysiology, heteromeric GluA2/3 expressed in HEK293 cells
Type: cell-based
ASSAY_CONDITIONS: 10 mM glutamate + 12 µM compound, −60 mV, pH 7.4, 22 °C, mean ± SEM, n = 10
With a cut-off of 60 pA, any Amplitude (glutamate + compound) strictly below it is called satisfied; any Amplitude (glutamate + compound) meeting it or above is called not satisfied.

Threshold test, Amplitude (glutamate + compound) < 60 pA: O=C(CCCCC1CCSS1)OCCCO (centres unmarked) [LA1, 1-Hydroxy-3-Lipo Ester]
satisfied

Input O=C(CCCCC1CCSS1)OCCCCCCO (centres unmarked) [LA4, 1-Hydroxy-6-Lipoester] ; condition: Amplitude (glutamate + compound) strictly below 60 pA. Does it hold?
not satisfied

Input O=C(CCCCC1CCSS1)OCCCO[N+](=O)[O-] (centres unmarked) ; condition: Amplitude (glutamate + compound) strictly below 60 pA. Does it hold?
satisfied

// next entry
Would you kindly verify if Amplitude (glutamate + compound) of O=C(CCCCC1CCSS1)OCCCCCCO[N+](=O)[O-] (centres unmarked) is strictly less than 60 pA?
not satisfied
